run description: qHTS drug screen for cell cycle checkpoint inhibitors in PARPi-resistant BRCA-mutant ovarian cancer cell lines. (AID 1963452)
details: PEO1/OlaR viability, CellTiter-Glo luminescence, 96 h; stronger effect = lower value
reported metric: Z-AUC
Enter the number alone.

Ask: Tell me measured Z-AUC for CCC(=O)OCC(=O)C1(OC(=O)CC)C(C)CC2C3CCC4=CC(=O)C=CC4(C)C3(F)C(O)CC21C (stereo not drawn) please.
Result: 0.365

Ask: Output Z-AUC of O=C(C[C@@H]1C/C=C\CCC(=O)O[C@H](c2ccccc2)CNC1=O)NCc1ccc(Cl)cc1
Result: -0.618

Ask: Please supply the value of reported Z-AUC for the item Nc1ncc(C(=O)NC2CN(C(=O)C3CC3)C2)c2ccc(-c3cccc(F)c3)nc12
Result: 1.21

Origin of measurements: PubChem BioAssay (NCATS)
